- assayed.system: D2-Zn-WH (human, UniProt P46063 282-616)
- Sequence (P46063 282-616): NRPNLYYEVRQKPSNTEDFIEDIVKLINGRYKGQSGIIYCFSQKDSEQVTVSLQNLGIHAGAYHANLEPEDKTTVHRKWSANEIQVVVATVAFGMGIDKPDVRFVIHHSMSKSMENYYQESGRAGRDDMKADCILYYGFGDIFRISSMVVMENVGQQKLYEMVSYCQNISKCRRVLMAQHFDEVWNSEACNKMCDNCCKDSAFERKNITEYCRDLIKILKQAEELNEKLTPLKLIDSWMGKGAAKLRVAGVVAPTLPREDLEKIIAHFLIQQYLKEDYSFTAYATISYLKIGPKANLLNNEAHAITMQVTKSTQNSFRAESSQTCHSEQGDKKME
- assay.procedure: fluorescence anisotropy
observation.type: Kd (nM)
Response body: numeric value in nM, unit text excluded.

Briefly, Kd measured for Rec20_FL/Rec20R 20 bp blunt duplex (dsDNA) DNA 1: GGATCTCGACGCTCTCCCTT DNA 2: AAGGGAGAGCGTCGAGATCC : 1170

// data source = paper PMC8599812
